- System: Escherichia coli TOP10
- measurement protocol: shrunken log2 fold change of peptide-encoding DNA abundance (4.5 h post-induction vs induction); higher = less antimicrobial activity (less host growth inhibition)
- condition info: time post-induction: 4.5 h; library: site-saturation at positions 5, 18, 19, 20
Tick yes (1) if shrunken log2 fold change is -0.1 or greater. Tick no (0) if shrunken log2 fold change is less than -0.1.

Q: For this sequence, is measured shrunken log2 fold change -0.1 or higher? RRIRQRPPRLPRPRPRPHVHPRP
Result: no (0)

Q: For this sequence, is measured shrunken log2 fold change -0.1 or higher? RRIRHRPPRLPRPRPRPPVWPRP
Result: yes (1)

Q: For this sequence, is measured shrunken log2 fold change -0.1 or higher? RRIRWRPPRLPRPRPRPQRIPRP
Result: yes (1)

Q: For this sequence, is measured shrunken log2 fold change -0.1 or higher? RRIRDRPPRLPRPRPRPVPWPRP
Result: yes (1)

Q: For this sequence, is measured shrunken log2 fold change -0.1 or higher? RRIRDRPPRLPRPRPRPDLLPRP
Result: yes (1)

Q: For this sequence, is measured shrunken log2 fold change -0.1 or higher? RRIRERPPRLPRPRPRPSGTPRP
Result: no (0)

Q: For this sequence, is measured shrunken log2 fold change -0.1 or higher? RRIRCRPPRLPRPRPRPSFRPRP
Result: no (0)

Q: For this sequence, is measured shrunken log2 fold change -0.1 or higher? RRIRQRPPRLPRPRPRPSNCPRP
Result: no (0)

Q: For this sequence, is measured shrunken log2 fold change -0.1 or higher? RRIRRRPPRLPRPRPRPKLLPRP
Result: yes (1)

Q: For this sequence, is measured shrunken log2 fold change -0.1 or higher? RRIRQRPPRLPRPRPRPCFQPRP
Result: no (0)

Q: For this sequence, is measured shrunken log2 fold change -0.1 or higher? RRIRVRPPRLPRPRPRPMVYPRP
Result: no (0)

Q: For this sequence, is measured shrunken log2 fold change -0.1 or higher? RRIRERPPRLPRPRPRPQATPRP
Result: yes (1)

Q: For this sequence, is measured shrunken log2 fold change -0.1 or higher? RRIRQRPPRLPRPRPRPHFYPRP
Result: no (0)

Q: For this sequence, is measured shrunken log2 fold change -0.1 or higher? RRIRRRPPRLPRPRPRPSFYPRP
Result: no (0)

---

- System: Escherichia coli TOP10;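 also: peptides expressed intracellularly from a pBAD plasmid library in pooled LB shake-flask culture, induced with 0.3% L-arabinose, DNA abundance read by NGS, three biological replicates, DESeq2 with apeglm shrinkage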
- measurement protocol: shrunken log2 fold change of peptide-encoding DNA abundance (4.5 h post-induction vs induction); higher = less antimicrobial activity (less host growth inhibition)
- condition info: time post-induction: 4.5 h; library: site-saturation at positions 5, 18, 19, 20
measured attribute: shrunken log2 fold change
Form: value (number only, do not type unit).

Summary for this sequence, RRIRKRPPRLPRPRPRPHLQPRP : shrunken log2 fold change is 0.224

Summary for this sequence, RRIRRRPPRLPRPRPRPTANPRP : shrunken log2 fold change is 0.589

Summary for this sequence, RRIRLRPPRLPRPRPRPFQMPRP : shrunken log2 fold change is -0.193

Summary for this sequence, RRIRARPPRLPRPRPRPLKEPRP : shrunken log2 fold change is 0.218

Summary for this sequence, RRIRPRPPRLPRPRPRPGPNPRP : shrunken log2 fold change is 0.51

Summary for this sequence, RRIRRRPPRLPRPRPRPRFRPRP : shrunken log2 fold change is 0.455

Summary for this sequence, RRIRVRPPRLPRPRPRPDTMPRP : shrunken log2 fold change is -0.177

Summary for this sequence, RRIRGRPPRLPRPRPRPETTPRP : shrunken log2 fold change is 2.32

Summary for this sequence, RRIRHRPPRLPRPRPRPKTIPRP : shrunken log2 fold change is -0.486

Summary for this sequence, RRIRTRPPRLPRPRPRPVMAPRP : shrunken log2 fold change is -0.0918

Summary for this sequence, RRIRKRPPRLPRPRPRPMQDPRP : shrunken log2 fold change is -0.0916

Summary for this sequence, RRIRGRPPRLPRPRPRPYIPPRP : shrunken log2 fold change is -0.801

Summary for this sequence, RRIRQRPPRLPRPRPRPTKTPRP : shrunken log2 fold change is 0.298

Summary for this sequence, RRIRSRPPRLPRPRPRPIPAPRP : shrunken log2 fold change is -0.286

Summary for this sequence, RRIRQRPPRLPRPRPRPCNNPRP : shrunken log2 fold change is -0.255

Summary for this sequence, RRIRPRPPRLPRPRPRPTEHPRP : shrunken log2 fold change is -0.1

Summary for this sequence, RRIRIRPPRLPRPRPRPSSRPRP : shrunken log2 fold change is -0.538

Summary for this sequence, RRIRVRPPRLPRPRPRPLPYPRP : shrunken log2 fold change is -0.587

Summary for this sequence, RRIRLRPPRLPRPRPRPVFCPRP : shrunken log2 fold change is 0.14

Summary for this sequence, RRIRMRPPRLPRPRPRPIIHPRP : shrunken log2 fold change is -0.136

Summary for this sequence, RRIRHRPPRLPRPRPRPDNIPRP : shrunken log2 fold change is -0.207

Summary for this sequence, RRIRHRPPRLPRPRPRPYPGPRP : shrunken log2 fold change is -0.216

Summary for this sequence, RRIRQRPPRLPRPRPRPRFDPRP : shrunken log2 fold change is -0.0137

Summary for this sequence, RRIRKRPPRLPRPRPRPHSIPRP : shrunken log2 fold change is 0.124

Summary for this sequence, RRIRNRPPRLPRPRPRPIFWPRP : shrunken log2 fold change is -0.162

Summary for this sequence, RRIRARPPRLPRPRPRPPYPPRP : shrunken log2 fold change is 0.256

Summary for this sequence, RRIRPRPPRLPRPRPRPAPEPRP : shrunken log2 fold change is 0.346

Summary for this sequence, RRIRTRPPRLPRPRPRPHRIPRP : shrunken log2 fold change is -0.052

Summary for this sequence, RRIRGRPPRLPRPRPRPDWGPRP : shrunken log2 fold change is 0.242

Summary for this sequence, RRIRIRPPRLPRPRPRPEWDPRP : shrunken log2 fold change is 0.054

Summary for this sequence, RRIRMRPPRLPRPRPRPNFNPRP : shrunken log2 fold change is -0.23

Summary for this sequence, RRIRKRPPRLPRPRPRPELWPRP : shrunken log2 fold change is 1.42
